This section presents molecules with their documented pIC50 values.
Tested on: T47D (Ductal carcinoma of breast)
Experiment: In vitro cytotoxicity, microculture tetrazolium (MTT) assay, T47D
Format: cell-based, Human
Conditions: Homo sapiens, 48 h with compound, further 48 h, Table 1
Structures can show the parent of a compound that is named as a salt.
When answering, recall that pIC50 equals minus log10 of the concentration in mol/L, and write that number alone.

// solved cases for pIC50 follow
>>> df
                                   molecule  reading
0  CC(=O)C1CC2=C(C(=O)c3ccccc3C2=O)C(OCC2CCCCN2)O1 (racemic) [BCH2069, hydrochloride]     5.95
1  C=CCC1CC2=C(C(=O)c3ccccc3C2=O)C(OC2CC(NC(=O)C(F)(F)F)C(O)C(C)O2)O1 (stereo not shown)     6.44

Consider the molecule CO[C@@H]1O[C@@H](C(=O)O)CC2=C1C(=O)c1ccccc1C2=O (relative stereo) and give its measured pIC50.
4.89

Which pIC50 is reported for this molecule? CO[C@@H]1O[C@H](C(=O)Nc2ccccc2)CC2=C1C(=O)c1ccccc1C2=O (relative stereo)
5.10

----------
Test system: T47D (Ductal carcinoma of breast)
Test: In vitro cytotoxicity, microculture tetrazolium (MTT) assay, T47D
Type: cell-based, Human
Details: Homo sapiens, 48 h with compound, further 48 h, Table 1
# pIC50 values compiled below
Hey, just a heads up that pIC50 is the negative log base 10 of the concentration in molar.

molecule	measurement.label	reading
CC(=O)[C@H]1CC2=C(C(=O)c3ccccc3C2=O)[C@H](O[C@H]2C[C@H](NC(=O)C(F)(F)F)[C@H](Br)[C@H](C)O2)O1	pIC50	6.82
CC(=O)[C@@H]1CC2=C(C(=O)c3ccccc3C2=O)[C@@H](O[C@@H]2O[C@@H](C)[C@@H](O)[C@@H](NC(=O)C(F)(F)F)C2I)O1 (stereo partly drawn)	pIC50	5.26
COC(=O)[C@H](CC(C)C)NC(=O)[C@H](CO[C@H]1O[C@H](C(C)=O)CC2=C1C(=O)c1ccccc1C2=O)NC(=O)OC(C)(C)C	pIC50	6.94

Let us move to another entry and its pIC50.
Fill in: pIC50 of COC(=O)[C@]1(C)CC2=C(C(=O)c3ccccc3C2=O)[C@@H](O[C@H]2C[C@H](NC(=O)C(F)(F)F)[C@H](O)[C@H](C)O2)O1 is ___
5.11

----------
IC50: recorded values
System: SKOV3 (Ovarian adenocarcinoma)
Test: In vitro cytotoxicity, microculture tetrazolium (MTT) assay, SKOV3
Type: cell-based, Human
Settings: Homo sapiens, SK-OV-3; SKOV3 ovarian adenocarcinoma; 48 h with compound, further 48 h, MTT; Table 1
Experimental: The microculture tetrazolium assay was used to test in vitro cytotoxicity. This assay is described in Plumb, J. A. et al., 1989 Cancer Research 49, 4435-4440, which is herein incorporated by reference. The cytotoxicity of compounds towards tumor cells is measured in vitro using the assay. […]
Where a name gives a salt, the structure may show the parent alone.
Report the figure in nM without appending any unit label.

Guide cases for IC50, answers given:
molecule	experimental.system	IC50 / nM
CC(=O)[C@H]1CC2=C(C(=O)c3ccccc3C2=O)[C@H](O[C@H]2C[C@H](NC(=O)C(F)(F)F)[C@H](Br)[C@H](C)O2)O1 [BCH2047]	SKOV3 (Ovarian adenocarcinoma)	17
CC(C)C(=O)[C@@H]1CC2=C(C(=O)c3ccccc3C2=O)[C@@H](O[C@H]2C[C@H](NC(=O)C(F)(F)F)[C@H](O)[C@H](C)O2)O1 [BCH2112]	SKOV3 (Ovarian adenocarcinoma)	104
CC[C@H]1CO[C@H](O[C@H]2C[C@H](NC(=O)C(F)(F)F)[C@H](O)[C@H](C)O2)C2=C1C(=O)c1ccccc1C2=O [BCH2091]	SKOV3 (Ovarian adenocarcinoma)	13400

So what IC50 did CC(=O)[C@]1(C)CC2=C(C(=O)c3ccccc3C2=O)[C@H](O[C@H]2C[C@H](NC(=O)C(F)(F)F)[C@H](O)[C@H](C)O2)O1 [BCH2090] get with SKOV3 (Ovarian adenocarcinoma)?
11000

// lookup IC50 | system=SKOV3 (Ovarian adenocarcinoma) | key= CO[C@@H]1O[C@H](C(=O)Nc2ccccc2)CC2=C1C(=O)c1ccccc1C2=O (relative stereo) [BCH2042]
3800

Form entry - test system: SKOV3 (Ovarian adenocarcinoma); read-out: IC50; molecule: CC(=O)C1CC2=C(C(=O)c3ccccc3C2=O)C(OCC2CCCNC2)O1 (mixture of isomers) [BCH2061, hydrochloride salt]
8.3

Request body: readout IC50, system SKOV3 (Ovarian adenocarcinoma), query CC(=O)[C@H]1CC2=C(C(=O)c3ccccc3C2=O)[C@H](O[C@H]2C[C@H](NC(=O)C(F)(F)F)[C@H](O)[C@H](C)O2)S1 [BCH2127] . Return the value.
350

State its IC50 on SKOV3 (Ovarian adenocarcinoma): CO[C@@H]1O[C@@H](C(=O)O)CC2=C1C(=O)c1ccccc1C2=O (relative stereo) [BCH2045]
5300

These data points were gathered from patent US5606037A.
